Target: DCP2 enzyme (Schizosaccharomyces pombe, UniProt O13828)
Construct: purchased New England Biolabs
Sequence (O13828 1-243 limits assumed): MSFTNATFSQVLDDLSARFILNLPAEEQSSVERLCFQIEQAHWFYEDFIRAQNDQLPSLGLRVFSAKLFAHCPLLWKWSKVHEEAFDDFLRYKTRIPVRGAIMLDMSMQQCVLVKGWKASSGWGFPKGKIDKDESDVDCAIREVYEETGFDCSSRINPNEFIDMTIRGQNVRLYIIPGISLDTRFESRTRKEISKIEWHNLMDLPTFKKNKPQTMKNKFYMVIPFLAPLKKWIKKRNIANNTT
Sequence (Q9P805 1-127 partner): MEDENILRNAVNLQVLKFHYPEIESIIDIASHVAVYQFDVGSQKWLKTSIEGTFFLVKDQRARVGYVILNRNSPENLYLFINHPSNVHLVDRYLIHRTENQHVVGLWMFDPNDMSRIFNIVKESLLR
Sequence (Q10108 155-180 partner limits assumed): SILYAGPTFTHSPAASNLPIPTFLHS
Assay: Decapping enzyme stability test
Type: biochemical
Conditions: 50 U mRNA decapping enzyme, 37° C., 45 minutes
Consider the following compounds; for each one, report its Decapping rate (%) of DCP2 enzyme.
Give the quantity in %, number only.

Query: For CO[C@@H]1[C@H](OP(=O)(O)OC[C@H]2O[C@@H](n3cnc4c(=O)[nH]c(N)nc43)[C@H](O)[C@@H]2O)[C@@H](COP(=O)(O)OP(=O)(O)OP(=O)(O)OC[C@H]2O[C@@H]([n+]3cn(C)c4c(=O)[nH]c(N)nc43)[C@H](O)[C@]2(C)NC(C)=O)O[C@H]1n1cnc2c(N)ncnc21 [YK-CAP-106] , write its Decapping rate (%) of DCP2 enzyme.
Result: 17.3

Query: For COC(C)[C@H]1[C@@H](O)[C@H]([n+]2cn(C)c3c(=O)[nH]c(N)nc32)O[C@@H]1COP(=O)(O)OP(=O)(O)OP(=O)(O)OC[C@H]1O[C@@H](n2cnc3c(N)ncnc32)[C@H](OC)[C@@H]1OP(=O)(O)OC[C@H]1O[C@@H](n2cnc3c(=O)[nH]c(N)nc32)[C@H](O)[C@@H]1O (stereo partly drawn) [YK-CAP-107] , write its Decapping rate (%) of DCP2 enzyme.
Result: 11.5

Query: For COC[C@H]1[C@@H](O)[C@H]([n+]2cn(C)c3c(=O)[nH]c(N)nc32)O[C@@H]1COP(=O)(O)OP(=O)(O)OP(=O)(O)OC[C@H]1O[C@@H](n2cnc3c(N)ncnc32)[C@H](OC)[C@@H]1OP(=O)(O)OC[C@H]1O[C@@H](n2cnc3c(=O)[nH]c(N)nc32)[C@H](O)[C@@H]1O [HN3002, reference compound] , write its Decapping rate (%) of DCP2 enzyme.
Result: 23.3

Query: For CNc1ncnc2c1ncn2[C@@H]1O[C@H](COP(=O)(O)OP(=O)(O)OP(=O)(O)OC[C@H]2O[C@@H]([n+]3cn(C)c4c(=O)[nH]c(N)nc43)[C@H](O)[C@@H]2O)[C@@H](OP(=O)(O)OC[C@H]2O[C@@H](n3cnc4c(=O)[nH]c(N)nc43)[C@H](O)[C@@H]2O)[C@H]1OC [m6A, reference compound] , write its Decapping rate (%) of DCP2 enzyme.
Result: 33.8

Query: For CO[C@@H]1[C@H](OP(=O)(O)OC[C@H]2O[C@@H](n3cnc4c(=O)[nH]c(N)nc43)[C@H](O)[C@@H]2O)[C@@H](COP(=O)(O)OP(=O)(O)OP(=O)(O)OC[C@H]2O[C@@H]([n+]3cn(C)c4c(=O)[nH]c(N)nc43)[C@H](O)[C@]2(F)CN(C)C)O[C@H]1n1cnc2c(N)ncnc21 [YK-CAP-104] , write its Decapping rate (%) of DCP2 enzyme.
Result: 46.1

Query: For CO[C@@H]1[C@H](OP(=O)(O)OC[C@H]2O[C@@H](n3cnc4c(=O)[nH]c(N)nc43)[C@H](O)[C@@H]2O)[C@@H](COP(=O)(O)OP(=O)(O)OP(=O)(O)OC[C@H]2O[C@@H]([n+]3cn(C)c4c(=O)[nH]c(N)nc43)[C@H](O)[C@]2(C)C#N)O[C@H]1n1cnc2c(N)ncnc21 [YK-CAP-105] , write its Decapping rate (%) of DCP2 enzyme.
Result: 33.9
